meta.source: paper PMC6072106

target-system: Fis (UniProt Q88DK4)
Sequence: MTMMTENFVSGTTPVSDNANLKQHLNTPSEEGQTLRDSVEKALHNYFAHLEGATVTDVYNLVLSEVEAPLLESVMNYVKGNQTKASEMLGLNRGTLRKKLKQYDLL
run-description: DNase I footprinting
measurement-parameters: EMSA: 24 mM Tris/HCl pH 7.5, 50 mM KCl, 10 mM MgCl2, 1 mM CaCl2, 0.1 mM EDTA, 5% glycerol, 0.05 ug/ul BSA, 0.05 ug/ul salmon sperm DNA, 20 ul, 20 min room …

- construct-sequence: "AGGATCCAATCGCCAGATGAACTTTACAAGGCGCAGAACAGCGAAATTCGAGCGCAGCAGTTCAAATGATATTAATTATCATTACAGGGTTTGCAATTCGTTACCCGCTGCAAGAAACATAATTAACAAAACCGCGCGTAATGCCCGAATTTCAAGGCTCTCAGCCAGTTACGAACG (double strand) [nuoA promoter Fis-nuo3-Fis-nuo4 (170 bp)]"
  binding: "binds"
- construct-sequence: "GCGCGTAATGCCCGAATTTCAAGGCTCTCAGCCAGTTACGAACGTTTTTTGTACTTAATCCTACGAATAAATTTGCGACAGAAATTTTACTTGCACCAGGTTTACCCATAAAATCAGCGCGATTGATCCGGCTGCGACATTTGGTCACTG (double strand) [nuoA promoter Fis-nuo1-Fis-nuo2 (150 bp)]"
  binding: "binds"

----------
target-system: Fis (UniProt Q88DK4)
Sequence: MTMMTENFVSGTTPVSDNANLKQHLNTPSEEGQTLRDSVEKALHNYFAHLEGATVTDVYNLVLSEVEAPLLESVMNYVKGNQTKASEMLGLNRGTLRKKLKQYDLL
run-description: DNase I footprinting
measurement-parameters: EMSA: 24 mM Tris/HCl pH 7.5, 50 mM KCl, 10 mM MgCl2, 1 mM CaCl2, 0.1 mM EDTA, 5% glycerol, 0.05 ug/ul BSA, 0.05 ug/ul salmon sperm DNA, 20 ul, 20 min room …
assay-endpoint: binding

- construct-sequence: "AGGATCCAATCGCCAGATGAACTTTACAAGGCGCAGAACAGCGAAATTCGAGCGCAGCAGTGGCACCGACCTTAATTATCATTACAGGGTTTGCAATTCGTTACCCGCTGCAAGAAACATAATTAACAAAACCGCGCGTAATGCCCGAATTTCAAGGCTCTCAGCCAGTTACGAACG (double strand) [Fis-nuo3-Fis-nuo4-mut]"
  assay-value: "binds more weakly"
- construct-sequence: "GCGCGTAATGCCCGAATTTCAAGGCTCTCAGCCAGTTACGAACGTTTTTTGTACTTAATCCTACGAATAAGGTTGCGAGTCGAATTTTACTTGCACCAGGTTTACCCATAAAATCAGCGCGATTGATCCGGCTGCGACATTTGGTCACTG (double strand) [Fis-nuo1-mut-Fis-nuo2]"
  assay-value: "binds more weakly"
- construct-sequence: "GCGCGTAATGCCCGAATTTCAAGGCTCTCAGCCAGTTACGAACGTTTGTCCTACCTAATCCTACGAATAAATTTGCGACAGAAATTTTACTTGCACCAGGTTTACCCATAAAATCAGCGCGATTGATCCGGCTGCGACATTTGGTCACTG (double strand) [Fis-nuo1-Fis-nuo2-mut]"
  assay-value: "binds more weakly"
